system_under_test: Albumin (Bos taurus) (UniProt P02769)
Sequence (P02769 whole entry, looked up): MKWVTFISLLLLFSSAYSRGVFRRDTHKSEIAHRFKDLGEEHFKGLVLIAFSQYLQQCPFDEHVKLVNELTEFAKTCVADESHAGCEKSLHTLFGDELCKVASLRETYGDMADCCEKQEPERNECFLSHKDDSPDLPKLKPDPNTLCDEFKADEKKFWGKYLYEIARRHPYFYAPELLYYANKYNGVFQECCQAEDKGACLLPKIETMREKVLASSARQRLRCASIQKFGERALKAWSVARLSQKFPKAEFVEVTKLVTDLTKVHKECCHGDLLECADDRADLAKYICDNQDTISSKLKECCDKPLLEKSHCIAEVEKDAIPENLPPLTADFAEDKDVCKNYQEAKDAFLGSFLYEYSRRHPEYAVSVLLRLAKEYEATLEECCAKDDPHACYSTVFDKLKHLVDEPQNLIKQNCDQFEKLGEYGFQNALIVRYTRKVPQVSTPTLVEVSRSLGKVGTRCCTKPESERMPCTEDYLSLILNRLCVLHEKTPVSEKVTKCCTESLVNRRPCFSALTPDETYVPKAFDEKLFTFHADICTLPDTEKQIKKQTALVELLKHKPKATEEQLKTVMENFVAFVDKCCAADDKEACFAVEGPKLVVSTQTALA
experiment: bovine serum albumin binders on microarray, profiling panel, artefact control for SMM control protein annotation, biochemical, small-molecule microarray, Alexa647 label, 635/667 nm fluorescence (AID 1118);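 note: score merges 667 nm emission intensity and signal-to-noise per printed compound spot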
condition_set: BSA-A647 binding, fluorescence 635 nm, higher = more signal
Could you label it satisfied if measured composite z-score is 0.5 or higher, and not satisfied otherwise?

molecule	system_under_test	answer_label
CCC1=C2CN(Cc3ccccc3Br)[C@@H]([C@@H](O)Cc3ccccc3)C2C=CCC1 (stereo partly drawn)	Albumin (Bos taurus) (UniProt P02769)	satisfied
O=C1O[C@H](c2ccccc2)[C@H](c2ccccc2)N2[C@H]1[C@@H](C(=O)Nc1nc3ccccc3s1)[C@]1(C(=O)Nc3ccc(C#CC4(O)CCCCCC4)cc31)[C@H]2c1ccc(O)cc1	Albumin (Bos taurus) (UniProt P02769)	satisfied
COc1cc(Cc2cc3c(c(CCc4ccccc4)n2)[Si](C(C)C)(C(C)C)OC3)cc(OC)c1OC	Albumin (Bos taurus) (UniProt P02769)	not satisfied
CC(C)N1CC=CC23O[C@@H]4/C=C\CCCOC(=O)C4[C@H]2C(=O)N(CCCCCO)[C@@H]3C1=O (stereo partly drawn)	Albumin (Bos taurus) (UniProt P02769)	not satisfied
COC(=O)C1=C(C)N(Cc2ccccc2)c2c(C(=O)OC)c(C(=O)OC)c(C(=O)OC)c(=O)n2[C@@H]1c1ccccc1	Albumin (Bos taurus) (UniProt P02769)	satisfied
CO[C@@H]1COC(=O)[C@H](C)NC(=O)CC=C[C@@H](C)[C@H](OC)COC(=O)[C@H](C)NC(=O)CC=C[C@H]1C	Albumin (Bos taurus) (UniProt P02769)	not satisfied
Cc1ccc(S(=O)(=O)c2cc3oc2CC[C@@H](CO)NC(=O)N(C)Cc2cn(nn2)C[C@H](Cc2ccccc2)NC3=O)cc1	Albumin (Bos taurus) (UniProt P02769)	satisfied
[N-]=[N+]=NCc1ccccc1[C@H]1OC(c2ccc(OCCCO)cc2)=N[C@@]1(Cc1ccccc1N=[N+]=[N-])C(=O)NCc1ccccc1	Albumin (Bos taurus) (UniProt P02769)	satisfied
CC(C)=C1C(=O)C(c2ccccc2)=C2CN3C(=O)N(CCc4ccccc4)C(=O)[C@]3(Cc3ccccc3)[C@H]21	Albumin (Bos taurus) (UniProt P02769)	not satisfied
CCOC(=O)C[C@H]1[C@H](OC(=O)Cc2ccc3c(c2)OCO3)[C@@H](NC(=O)CC(C)C)c2cc(OCCCO)ccc2N1C(=O)c1ccccc1	Albumin (Bos taurus) (UniProt P02769)	satisfied
COCCOC(=O)N1C(=O)[C@@]2(c3cc(C#CCC(C(=O)OC)C(=O)OC)ccc31)[C@H](C(=O)N1CCN(c3ncccn3)CC1)[C@H]1C(=O)O[C@H](c3ccccc3)[C@H](c3ccccc3)N1[C@@H]2c1ccc(O)cc1	Albumin (Bos taurus) (UniProt P02769)	satisfied
O=C1O[C@H](c2ccccc2)[C@H](c2ccccc2)N2[C@H]1[C@@H](C(=O)NC[C@H](O)c1ccccc1)[C@]1(C(=O)Nc3ccc(C#CC4=CCCCC4)cc31)[C@H]2c1ccc(OCCO)cc1	Albumin (Bos taurus) (UniProt P02769)	satisfied
COc1ccc([Si](C)(C)[C@@H]2[C@@H](CCO)O[C@]3(C(=O)N(Cc4ccccc4)c4ccccc43)[C@H]2C)cc1	Albumin (Bos taurus) (UniProt P02769)	not satisfied
